These data points were gathered from patent US7452908B2.

# measured-on: human m3 muscarinic acetylcholine receptor expressed in CHO cells (Homo sapiens, UniProt P20309)
# Construct: purchased Receptor Biology, Inc; host or cells: CHO cells
# Sequence (P20309 whole entry): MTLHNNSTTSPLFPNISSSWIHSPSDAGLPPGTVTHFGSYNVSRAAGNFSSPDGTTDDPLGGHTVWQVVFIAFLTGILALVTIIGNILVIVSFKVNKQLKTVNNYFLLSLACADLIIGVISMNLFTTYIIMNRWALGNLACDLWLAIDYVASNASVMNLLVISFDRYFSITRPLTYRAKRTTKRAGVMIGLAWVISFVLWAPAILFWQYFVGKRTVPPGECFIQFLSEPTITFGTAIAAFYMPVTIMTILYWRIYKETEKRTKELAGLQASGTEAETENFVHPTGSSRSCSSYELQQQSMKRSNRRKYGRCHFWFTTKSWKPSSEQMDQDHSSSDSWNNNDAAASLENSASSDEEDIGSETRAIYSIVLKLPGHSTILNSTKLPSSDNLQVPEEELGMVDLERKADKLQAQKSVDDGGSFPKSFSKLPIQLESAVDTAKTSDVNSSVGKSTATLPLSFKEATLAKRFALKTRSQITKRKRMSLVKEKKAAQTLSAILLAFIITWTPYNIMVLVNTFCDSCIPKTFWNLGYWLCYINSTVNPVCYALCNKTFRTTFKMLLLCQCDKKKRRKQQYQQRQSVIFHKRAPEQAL
# protocol-notes: Inhibition of [3H]-N-methylscopolamine binding to muscarinic m3 receptor
# experimental-context: ratio of Ki m4 to Ki m3
# Description: These tests were performed according to a modification of the method of Hargreaves, et al. (Br. J. Pharmacol. 107: 494-501, 1992). […] After adding a scintillator (Microscinti 0; Packard), the radioactivity of [^3H]-N-methylscopolamine binding to the filter was counted with a microplate scintillation counter (TopCount™; Packard). Non-specific receptor binding of [^3H]-N-methylscopolamine was measured by adding 1 μM N-methylscopolamine.
quantity-name: Selectivity m4/m3 (times)

# get_value(readout='Selectivity m4/m3', item= CC[N+]1(CC)CCC[C@H](CNC(=O)[C@H]2CCCN2C(=O)[C@@H]2C[C@@H](O)CN2C(=O)CC(c2ccc(Cl)cc2)(c2ccc(Cl)cc2)c2ccc(Cl)cc2)C1.[Cl-] [Example 144] ) 21

I would be grateful if you could share the reported Selectivity m4/m3 for O=C(CCCCCNC(=O)CC(c1ccccc1)(c1ccccc1)c1ccccc1)NC[C@H]1CCCN(CC2CCCCC2)C1 [Example 28] . 30

For O=C(CCNC(=O)[C@H](Cc1c[nH]cn1)NC(=O)CC(c1ccccc1)(c1ccccc1)c1ccccc1)NC[C@H]1CCCN(CC2CCCCC2)C1 [Example 19] , what is its reported Selectivity m4/m3? 11

[I] CC[C@H](C)C[N+]1(CC)CCC[C@@H](CNC(=O)CCCCCNC(=O)CC(c2ccccc2)(c2ccccc2)c2ccccc2)C1.[Cl-] (stereo partly drawn) [Example 150]
[II] CCCCCN1CCC[C@H](CNC(=O)CCNC(=O)CNC(=O)CC(c2ccccc2)(c2ccccc2)c2ccccc2)C1 [Example 6]
[III] O=C(NC[C@H]1CCC[N+]2(CCCC2)C1)[C@H]1CCCN1C(=O)[C@@H]1C[C@@H](O)CN1C(=O)CC(c1ccccc1)(c1ccccc1)c1ccccc1.[Cl-] [Example 151]
Would you mind ranking these compounds by ascending Selectivity m4/m3? Reply: labels, ordered per the request. III, II, I
